- System: HOP-92 NSCLC
- Assay details: NCI-60 one-dose screen, 48 h (100 = growth as untreated, 0 = no growth, -100 = all killed)
- Condition parameters: 10 µM unless noted
- Description: Growth inhibition of the HOP-92 human Non-Small Cell Lung tumor cell line is measured as a screen for anti-cancer activity. Cells are grown in 96 well plates and exposed to the test compound for 48 hours. Compounds are tested at a single concentration, which is 10^-5 M for most compounds. The reported endpoint is percent growth (GI% or GIPRCNT), where numbers from 0 - 100% represent growth inhibition, and numbers from -100% - 0 represent cell death. […]
About 83,000 compounds went through this panel and 20% of them were active in at least one assay; those are over-represented in the sample as a whole.
Measured metric: growth (%)

>>> numeric_value("CC(=O)OCC(=O)O[C@@H]1C[C@]2(C(C)C)O[C@@]1(C)[C@@H]1CC[C@@H](C)[C@H]1[C@@H]2OC(=O)/C=C/c1ccccc1")
67.4
>>> numeric_value("COc1ccc(/C(C)=C(\\c2ccc(Cl)cc2)c2ccc(OCCCN(C)C)cc2)cc1")
62.5
>>> numeric_value("O=c1n(C2OC(CO)C(O)C2O)ccc2nccn12 (stereo unspecified)")
105
>>> numeric_value("O=C(/C=C/c1ccc(Cl)cc1)c1ccc(-n2cc(CN3CCN(c4cc5c(cc4F)c(=O)c(C(=O)O)cn5C4CC4)CC3)nn2)cc1")
84.8
>>> numeric_value("CC(=O)/C(Br)=C/c1ccc(Br)o1")
33.8
>>> numeric_value("COc1ccc(NC(=O)CSc2oc(-c3ccccc3)nc2S(=O)(=O)c2ccc(Cl)cc2)c(OC)c1")
39.6
>>> numeric_value("COc1ccc(NC(=O)c2ccc(NC3=C(c4ccc(Cl)cc4)C(=O)NC3=O)cc2)cc1")
102
>>> numeric_value("COc1cc(CNC(=O)CCCC/C=C/C(C)C)ccc1OCc1cn(-c2ccc(C(F)(F)F)cc2)nn1")
13.8
>>> numeric_value("CCOc1cc(\\C=N/N=C(N)/C(N)=N\\N=C/c2ccc(O)c(OCC)c2)ccc1O")
116
>>> numeric_value("O=C1C(c2c(O)[nH]c3ncccc23)=Nc2ccccc21")
96.9
>>> numeric_value("CC(=O)[C@H]1CC[C@]2(C)[C@@H]1CC[C@@H]1[C@@]3(C)C/C(=C/c4cccnc4)C(=O)C(C)(C)[C@@H]3CC[C@]12C")
48.8
>>> numeric_value("O=C1c2c(c3c4cccnc4[nH]c3c3ccc4ccccc4c23)C(=O)N1O")
81.7
>>> numeric_value("Cc1ccc2c(n1)C[C@H](C(C)(C)O)CC[C@H]2C")
97.7
>>> numeric_value("Cc1c(Cl)cccc1NC(=O)c1sc2nc3c(cc2c1N)CCCC3")
25.6
>>> numeric_value("O=[N+]([O-])c1ccc(Oc2cccc3c(Oc4ccc([N+](=O)[O-])cc4[N+](=O)[O-])cccc23)c([N+](=O)[O-])c1")
62
>>> numeric_value("CCOC(=O)/C=C1\\S/C(=N\\Nc2cc(=O)[nH]c3ccc(OC)cc23)N(c2ccccc2)C1=O")
89.7
>>> numeric_value("CN(C)C(=O)OCc1ccc2c(Cl)cc(Cl)c(O)c2n1")
58.8
>>> numeric_value("NC(=O)[C@@H]1Cc2ccccc2CN1C(=O)c1ccc2c(c1)Cc1ccccc1-2")
92.9
>>> numeric_value("O=C(NCCN1CCOCC1)c1cncnc1Nc1ccc2c(ccn2Cc2ccccn2)c1")
93.8
>>> numeric_value("C=C(c1ccc(C(=O)O)c(F)c1)c1cc2c(cc1C)C(C)(C)C=CC2(C)C")
62.4
>>> numeric_value("COc1ccc(S(=O)(=O)NC2c3ccccc3CC2O)cc1OC (stereo unspecified)")
109
>>> numeric_value("COc1ccc(-c2cn(Cc3ccc4c(Br)cc(Br)c(O)c4n3)nn2)cc1")
80.3
>>> numeric_value("c1ccc(-c2cn3nc(-c4c[nH]c5ccccc45)sc3n2)cc1")
75.5
>>> numeric_value("Cc1oc2ccc(O)c(CN3CCCCCC3)c2c1C(=O)Nc1ccc(C(F)(F)F)cc1")
34.9
>>> numeric_value("CN1CCN(Cn2nc(-c3cc(Cl)cc(Cl)c3Cl)oc2=S)CC1")
119
>>> numeric_value("CC(C)(C)[C@H](OCc1cn([C@H]2C[C@@H](O)[C@@H](CO)O2)c(=O)[nH]c1=O)c1ccc(C#Cc2ccccc2)cc1[N+](=O)[O-]")
58.1
>>> numeric_value("C=CCOC(=O)C1=C(C)N(CC)C(=O)N(CC)C1c1c(Cl)n(C)c2ccccc12 (stereo unspecified)")
21.6
>>> numeric_value("O=c1c(Cc2ccc(F)cc2)cc(-c2ccccc2)nn1C/C(=N/O)c1ccccc1")
42.6
>>> numeric_value("COC(=O)c1sc(-c2ccc(C)cc2)cc1O")
105
>>> numeric_value("C/C(=N\\NC(=O)c1ccc(C(C)(C)C)cc1)c1ccc(O)cc1O")
59.3
>>> numeric_value("O=C1CC2C=CCN2C=C1NC(=O)c1ccccc1 (stereo unspecified)")
110
